Cited source for all entries: paper PMC7859452

# tested_target: the molecule itself
# run_description: AUC; sedimentation velocity, c(s) size distribution (SEDFIT), 50,000 rpm, 20 °C, 10 mM Hepes pH 7.4, 137 mM NaCl, concentration series 0.2 – 3 mg/ml; KD of dimer to monomers from integration of the c(s) peaks
pKd: −log10 of the molar value.
observed_property: pKd

{"protein": "Complement Factor H SCR-18/20 fragment (domain or fragment, N-linked glycan chain on SCR-18) TSCVNPPTVQNAYIVSRQMSKYPSGERVRYQCRSPYEMFGDEEVMCLNGNWTEPPQCKDSTGKCGPPPPIDNGDITSFPLSVYAPASSVEYQCQNLYQLEGNKRITCRNGQWSEPPKCLHPCVISREIMENYNIALRWTAKQKLYSRTGESVEFVCKRGYRLSSRSHTLRTTCWDGKLEYPTCAKR", "assay_result": 3.23}
